Record form. Attribute: melting point. Fill in for each entry.

// melting point lookup, key: O=C(Nc1n[nH]c(=S)s1)N[C@@H](Cc1ccc(F)cc1)C(=O)N1CCN(c2ccccn2)CC1
240 to 242 °C

// melting point lookup, key: COCC(=O)Nc1ccc(-c2ccncc2)cc1
177 to 178 °C

// melting point lookup, key: CCS(=O)CC(=O)c1ccc(-c2ccccc2F)cc1 (stereo not given)
91 to 93 °C

// melting point lookup, key: Nc1ccc2c3c(cccc13)C(=O)N(C1CCN(Cc3ccccc3)CC1)C2=O
226 to 228 °C

// melting point lookup, key: Cc1c(C(F)(F)F)nn(C(C)C)c1O
150 to 153 °C

// melting point lookup, key: CCC(CC)CNC(=O)c1ccc2c(c1)N(C(C)CN1CCCC1)c1ccccc1S2 (racemic)
115 °C

// melting point lookup, key: COc1ccc(-c2cc(CN3C(=O)c4ccccc4C3=O)c(=O)n(CC3CC3)n2)cc1F
242 to 244 °C

// melting point lookup, key: COC(=O)c1nn(C2CCCCO2)cc1NC(=O)c1cc(Cl)ccn1 (stereo not given)
201 to 203 °C

// melting point lookup, key: CC(C)OC(=O)C1CCCN1S(=O)(=O)c1ccc(N2CCC(=O)CC2)cc1 (stereo not given)
97 to 101 °C

// melting point lookup, key: CC(C)(O)CC(O)=C(C#N)CC(=O)Nc1ccccc1
103 °C
